- system: T1, CD19 (UniProt P15391 20-556, limits assumed)
- T1 sequence (looked up): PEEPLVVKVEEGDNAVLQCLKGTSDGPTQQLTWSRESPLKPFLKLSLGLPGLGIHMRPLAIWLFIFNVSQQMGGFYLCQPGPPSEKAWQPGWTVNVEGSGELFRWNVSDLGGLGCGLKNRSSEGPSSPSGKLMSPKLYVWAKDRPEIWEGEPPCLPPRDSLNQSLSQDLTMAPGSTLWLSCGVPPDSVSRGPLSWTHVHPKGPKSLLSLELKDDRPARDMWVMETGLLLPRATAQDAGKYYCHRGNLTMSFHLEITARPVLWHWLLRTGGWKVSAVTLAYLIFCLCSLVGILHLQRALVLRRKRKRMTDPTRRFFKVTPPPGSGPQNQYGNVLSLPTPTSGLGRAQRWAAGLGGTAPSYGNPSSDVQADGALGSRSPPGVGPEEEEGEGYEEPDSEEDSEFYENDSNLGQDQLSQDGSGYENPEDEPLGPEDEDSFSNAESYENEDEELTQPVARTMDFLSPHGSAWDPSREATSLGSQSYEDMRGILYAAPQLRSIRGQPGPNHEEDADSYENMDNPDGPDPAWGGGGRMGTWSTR
- assay.remarks: cell-based or functional assay
Measured IC50, in vitro cytotoxicity, WSU-DLCL-2 cells by item
Please give a number only; it is taken to be in µg/mL.

Below are worked cases with known answers.
binder	value.observed
hBU12-17 (antibody, V domains shown, antibody carries drug-linker 17 (MDpr-Lys(PEG12)-glucuronide-MMAE), 8 drugs per antibody) VH: QVQLQESGPGLVKPSQTLSLTCTVSGGSISTSGMGVGWIRQHPGKGLEWIGHIWWDDDKRYNPALKSRVTISVDTSKNQFSLKLSSVTAADTAVYYCARMELWSYYFDYWGQGTLVTVSS VL: EIVLTQSPATLSLSPGERATLSCSASSSVSYMHWYQQKPGQAPRLLIYDTSKLASGIPARFSGSGSGTDFTLTISSLEPEDVAVYYCFQGSVYPFTFGQGTKLEIKR	0.129
hBU12-14 (antibody, V domains shown, antibody carries drug-linker 14 (MDpr-glucuronide-MMAE, no PEG), 8 drugs per antibody) VH: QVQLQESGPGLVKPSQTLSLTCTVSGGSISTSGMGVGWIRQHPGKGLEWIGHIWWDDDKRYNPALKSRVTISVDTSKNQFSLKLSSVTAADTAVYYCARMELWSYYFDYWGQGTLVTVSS VL: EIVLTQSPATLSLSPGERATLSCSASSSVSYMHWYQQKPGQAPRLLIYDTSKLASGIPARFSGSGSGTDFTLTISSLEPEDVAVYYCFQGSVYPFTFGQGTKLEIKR	0.005
hBU12-16 (antibody, V domains shown, antibody carries drug-linker 16 (MDpr-Lys(PEG24)-glucuronide-MMAE), 8 drugs per antibody) VH: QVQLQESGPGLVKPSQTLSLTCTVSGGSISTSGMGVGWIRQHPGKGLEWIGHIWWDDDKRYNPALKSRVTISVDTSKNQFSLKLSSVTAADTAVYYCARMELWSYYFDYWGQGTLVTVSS VL: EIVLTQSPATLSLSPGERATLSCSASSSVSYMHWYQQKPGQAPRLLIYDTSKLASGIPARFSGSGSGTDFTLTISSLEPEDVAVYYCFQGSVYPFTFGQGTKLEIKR	0.003
hBU12-18 (antibody, V domains shown, antibody carries drug-linker 18 (MDpr-Lys(PEG8)-glucuronide-MMAE), 8 drugs per antibody) VH: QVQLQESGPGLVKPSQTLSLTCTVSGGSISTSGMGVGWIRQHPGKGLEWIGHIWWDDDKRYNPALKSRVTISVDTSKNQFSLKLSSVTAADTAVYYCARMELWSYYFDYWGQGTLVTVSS VL: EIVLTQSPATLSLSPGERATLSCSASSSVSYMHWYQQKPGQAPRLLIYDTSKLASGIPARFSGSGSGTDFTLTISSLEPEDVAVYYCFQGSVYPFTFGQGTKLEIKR	0.211
hBU12-42 (antibody, V domains shown, antibody carries drug-linker 42 (MDpr-Lys(PEG4)-glucuronide-MMAE), 8 drugs per antibody) VH: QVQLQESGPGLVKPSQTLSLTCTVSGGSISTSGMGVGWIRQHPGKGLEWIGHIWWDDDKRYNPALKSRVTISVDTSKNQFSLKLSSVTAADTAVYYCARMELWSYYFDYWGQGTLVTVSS VL: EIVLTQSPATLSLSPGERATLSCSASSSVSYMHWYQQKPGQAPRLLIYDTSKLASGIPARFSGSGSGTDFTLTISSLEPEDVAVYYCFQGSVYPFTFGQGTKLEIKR	0.005

IC50, in vitro cytotoxicity, WSU-DLCL-2 cells recorded for this binder, hBU12-19 (antibody, V domains shown, antibody carries drug-linker 19 (MDpr-Lys(PEG4[PEG4]3)-glucuronide-MMAE, branched PEG), 8 drugs per antibody) VH: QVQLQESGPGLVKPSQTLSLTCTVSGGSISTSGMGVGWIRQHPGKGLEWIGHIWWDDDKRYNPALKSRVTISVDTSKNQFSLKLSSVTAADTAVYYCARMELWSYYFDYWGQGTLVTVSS VL: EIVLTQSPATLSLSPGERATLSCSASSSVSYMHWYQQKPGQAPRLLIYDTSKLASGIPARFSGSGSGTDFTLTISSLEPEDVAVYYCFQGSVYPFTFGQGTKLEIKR , is 0.247

IC50, in vitro cytotoxicity, WSU-DLCL-2 cells recorded for this binder, hBU12-43 (antibody, V domains shown, antibody carries drug-linker 43 (MDpr-Lys(PEG2)-glucuronide-MMAE), 8 drugs per antibody) VH: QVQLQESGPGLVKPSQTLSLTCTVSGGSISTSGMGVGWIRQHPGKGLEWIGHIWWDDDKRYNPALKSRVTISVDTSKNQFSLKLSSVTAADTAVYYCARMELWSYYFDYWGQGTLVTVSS VL: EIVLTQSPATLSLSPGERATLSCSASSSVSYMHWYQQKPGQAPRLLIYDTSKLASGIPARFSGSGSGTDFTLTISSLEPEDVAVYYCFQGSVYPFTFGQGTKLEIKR , is 0.012
